test system: 628569-122-R-J1-PDC complex spheroid viability; assay: Anticancer human tumor 628569-122-R-J1-PDC patient-derived head and neck squamous carcinoma cell line growth inhibition [CLK]; conditions: second compound 0.0316 µM; first compound 1 µM; stronger effect = lower value;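 further: spheroids exposed to agents for seven days before readout; 100% = DMSO vehicle control viability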
Provide the reported viability, T/C of each item.

| Molecule | Test system | viability, T/C |
| --- | --- | --- |
| CC1COCCN1c1cc(C2(S(C)(=N)=O)CC2)nc(-c2ccnc3[nH]ccc23)n1 (centres undefined) + CNC(=O)c1ccc(Nc2nc(OC3CCCC3)c3c(-c4ccc5nc(C)oc5c4)c[nH]c3n2)c(OC)c1 | 628569-122-R-J1-PDC complex spheroid viability | 51.4% |

Working through the 7 molecules below one at a time, give viability, T/C for each.
1. C#Cc1c(F)ccc2cc(O)cc(-c3ncc4c(N5CC6CCC(C5)N6)nc(OCC56CCCN5CC(F)C6)nc4c3F)c12 (centres undefined) + CNC(=O)c1ccc(Nc2nc(OC3CCCC3)c3c(-c4ccc5nc(C)oc5c4)c[nH]c3n2)c(OC)c1
2. Nc1ccn(C2OC(CO)C(O)C2(F)F)c(=O)n1 (centres undefined) + CNC(=O)c1ccc(Nc2nc(OC3CCCC3)c3c(-c4ccc5nc(C)oc5c4)c[nH]c3n2)c(OC)c1
3. Nc1ccccc1NC(=O)c1ccc(CNC(=O)OCc2cccnc2)cc1 + CN1CCN(c2cc(C(=O)Nc3cc4cc(-c5cnn(C)c5)ccc4cn3)ccn2)CC1
4. CCN1CCN(Cc2ccc(Nc3ncc(F)c(-c4cc(F)c5nc(C)n(C(C)C)c5c4)n3)nc2)CC1 + CNC(=O)c1ccc(Nc2nc(OC3CCCC3)c3c(-c4ccc5nc(C)oc5c4)c[nH]c3n2)c(OC)c1
5. CC1(C)CCC(CN2CCN(c3ccc(C(=O)NS(=O)(=O)c4ccc(NCC5CCOCC5)c([N+](=O)[O-])c4)c(Oc4cnc5[nH]ccc5c4)c3)CC2)=C(c2ccc(Cl)cc2)C1 + CNC(=O)c1ccc(Nc2nc(OC3CCCC3)c3c(-c4ccc5nc(C)oc5c4)c[nH]c3n2)c(OC)c1
6. C=CC(=O)N1CCN(c2nc(=O)n(-c3c(C)ccnc3C(C)C)c3nc(-c4c(O)cccc4F)c(F)cc23)C(C)C1 (centres undefined) + CN1CCN(c2cc(C(=O)Nc3cc4cc(-c5cnn(C)c5)ccc4cn3)ccn2)CC1
7. COc1cccc2c1C(=O)c1c(O)c3c(c(O)c1C2=O)CC(O)(C(=O)CO)CC3OC1CC(N)C(O)C(C)O1 (centres undefined) + CNC(=O)c1ccc(Nc2nc(OC3CCCC3)c3c(-c4ccc5nc(C)oc5c4)c[nH]c3n2)c(OC)c1

Reply:
1. 100%
2. 40.7%
3. 162%
4. 155%
5. 94.7%
6. 113%
7. 12.9%

Working through the 4 molecules below one at a time, give viability, T/C for each.
1. CC(CO)NC(=O)c1cc(-c2ccc(Cl)cc2)nn(-c2cnn(C)c2)c1=O (centres undefined) + CN1CCN(c2cc(C(=O)Nc3cc4cc(-c5cnn(C)c5)ccc4cn3)ccn2)CC1
2. CC(=O)O[C@H]1C(=O)[C@@]2(C)[C@H]([C@H](OC(=O)c3ccccc3)[C@]3(O)C[C@H](OC(=O)[C@H](O)[C@@H](NC(=O)c4ccccc4)c4ccccc4)C(C)=C1C3(C)C)[C@]1(OC(C)=O)CO[C@@H]1C[C@@H]2O + CN1CCN(c2cc(C(=O)Nc3cc4cc(-c5cnn(C)c5)ccc4cn3)ccn2)CC1
3. COc1ccc([C@@H](O)c2cc(-c3ncnc4cc(N5CCOCC5)ccc34)c(F)cc2Cl)nn1 + CN1CCN(c2cc(C(=O)Nc3cc4cc(-c5cnn(C)c5)ccc4cn3)ccn2)CC1
4. CC1COCCN1c1cc(C2(S(C)(=N)=O)CC2)nc(-c2ccnc3[nH]ccc23)n1 (centres undefined) + CN1CCN(c2cc(C(=O)Nc3cc4cc(-c5cnn(C)c5)ccc4cn3)ccn2)CC1

Reply:
1. 216%
2. 41%
3. 71.6%
4. 60.8%

Working through the 6 molecules below one at a time, give viability, T/C for each.
1. C=CC(=O)N1CCN(c2nc(=O)n(-c3c(C)ccnc3C(C)C)c3nc(-c4c(O)cccc4F)c(F)cc23)C(C)C1 (centres undefined) + CNC(=O)c1ccc(Nc2nc(OC3CCCC3)c3c(-c4ccc5nc(C)oc5c4)c[nH]c3n2)c(OC)c1
2. CCN1CCN(Cc2ccc(Nc3ncc(F)c(-c4cc(F)c5nc(C)n(C(C)C)c5c4)n3)nc2)CC1 + CN1CCN(c2cc(C(=O)Nc3cc4cc(-c5cnn(C)c5)ccc4cn3)ccn2)CC1
3. C=C(F)C(=O)N1CCN(c2nc(OCC3CCCN3C)nc3c2CCN(c2cccc4cccc(Cl)c24)C3)CC1CC#N (centres undefined) + CN1CCN(c2cc(C(=O)Nc3cc4cc(-c5cnn(C)c5)ccc4cn3)ccn2)CC1
4. CC(=O)O[C@H]1C(=O)[C@@]2(C)[C@H]([C@H](OC(=O)c3ccccc3)[C@]3(O)C[C@H](OC(=O)[C@H](O)[C@@H](NC(=O)c4ccccc4)c4ccccc4)C(C)=C1C3(C)C)[C@]1(OC(C)=O)CO[C@@H]1C[C@@H]2O + CNC(=O)c1ccc(Nc2nc(OC3CCCC3)c3c(-c4ccc5nc(C)oc5c4)c[nH]c3n2)c(OC)c1
5. COc1cccc2c1C(=O)c1c(O)c3c(c(O)c1C2=O)CC(O)(C(=O)CO)CC3OC1CC(N)C(O)C(C)O1 (centres undefined) + CN1CCN(c2cc(C(=O)Nc3cc4cc(-c5cnn(C)c5)ccc4cn3)ccn2)CC1
6. C=C(F)C(=O)N1CCN(c2nc(OCC3CCCN3C)nc3c2CCN(c2cccc4cccc(Cl)c24)C3)CC1CC#N (centres undefined) + CNC(=O)c1ccc(Nc2nc(OC3CCCC3)c3c(-c4ccc5nc(C)oc5c4)c[nH]c3n2)c(OC)c1

Reply:
["105%", "181%", "108%", "35.9%", "29.3%", "112%"]

Memo: O=c1[nH]cc(F)c(=O)[nH]1 + CN1CCN(c2cc(C(=O)Nc3cc4cc(-c5cnn(C)c5)ccc4cn3)ccn2)CC1 , reported viability, T/C: 102%
